Reported values of TGI for individual entries
test system: SK-MEL-5 melanoma; assay: NCI tumour cell line growth inhibition, 48 h
Reported Endpoint: TGI

CC(=O)N1C(C(=O)NNc2ccccc2)CSC1c1ccccc1 (configuration not stated)    > 100 µM
COC(=O)c1oc2c(O)c(OC)c(Br)cc2c1C    43.5 µM
CCOc1ccc(N=Nc2ccc3oc(=O)c(/C(C)=N\NC(=O)CC(=O)Nc4ccc(Cl)cc4)cc3c2)cc1    38.7 µM
COc1cc(C(=O)N2CCN(c3ccccc3OC)CC2)c(N)cc1OCc1ccccc1    31.4 µM
COc1cc2c(cc1OCCCCCn1c(-c3ccco3)nc3ccccc31)N=C[C@@H]1CCCN1C2=O    < 0.01 µM
N#CCC12CC=CCC1=C(O)C(=O)c1ccc(O)cc12 (configuration not stated)    > 100 µM
O=C(CC/C(CC(=O)c1ccc(Cl)cc1)=N/O)Nc1ccc(Cl)c(Cl)c1    > 100 µM

====

tested on: LOX IMVI melanoma; assay: NCI tumour cell line growth inhibition, 48 h
Reported Endpoint: TGI

CCOCC(=O)N[C@H]1CCc2cc(OC(=O)COCC)c(OC)c(OC)c2-c2ccc(SC)c(=O)cc21    > 100 µM
CC(C)=CCc1ccc(O)c(=O)cc1C(C)C    > 22.9 µM
O=C1C2C(C(=O)N1c1ccccc1)C1(c3ccccc3)OC2(c2ccccc2)c2ccccc21 (stereo not drawn)    > 100 µM
COc1ccc2c(c1)O[C@H]1c3ccc(O)cc3OC[C@@H]21    32.2 µM
CCCC(=O)/C=C/S/C=C/C(=O)CCC    6.27 µM
CC(=O)O[C@H]1[C@H](OC(C)=O)[C@@H](CN=[N+]=[N-])OCO[C@@H]1CN=[N+]=[N-]    > 100 µM
NC1=NN(c2ccccc2)C2(c3ccncc3C(=O)O)C1C(N)=NN2c1ccccc1 (stereo not drawn)    > 100 µM
COc1cc(C2CC(c3ccc(Nc4ccnc5cc(Cl)ccc45)cc3)=NN2C=O)cc(OC)c1OC (stereo not drawn)    3.85 µM

====

test system: HOP-62 NSCLC; test: NCI tumour cell line growth inhibition, 48 h
Reported Endpoint: TGI (µM)

CN(C)c1ccc(/C=C/c2ccnc3ccccc23)cc1N    28.4
O=NNc1cnccn1    265
COc1ccc(NC(=O)COC(=O)c2cccc3c(=O)c4ccccc4[nH]c23)cc1    55.1
O=C1NC(N/N=C/c2ccccc2)=N/C1=C\c1cccs1    37.8

====

tested on: EKVX NSCLC; test: NCI tumour cell line growth inhibition, 48 h
Reported values of TGI for individual entries
Reported Endpoint: TGI (µM)

CN(C)CC(C)(C)C(/C=C/c1ccccc1)=N\Nc1ccccc1    16.4
CC1(C)CCCCCC(C)(CCCCCCCCCCCO)C1=O (stereo not given)    32

====

system: RPMI-8226 leukemia; experiment: NCI tumour cell line growth inhibition, 48 h
Reported values of GI50 for individual entries
Reported Endpoint: GI50

CC1(C)N=C(N)N=C(N)N1c1ccc(OCC(=O)N2CCOCC2)c(Cl)c1    9.04 µM
COc1cc(C2CC(c3ccc(Nc4ccnc5cc(Cl)ccc45)cc3)=NN2C=O)cc(OC)c1OC (stereo unspecified)    2.56 µM
COc1ccc2c(c1)C(=O)/C(=C/c1ccc([N+](=O)[O-])s1)O2    0.26 µM
CS(=O)(=O)Nc1cccc(-c2ccc3c(NC(=O)C4CC4)n[nH]c3c2)c1    10.8 µM
COc1cc(C(=O)/C=C/c2c(-c3ccc(F)cc3)nc3ncccn23)cc(OC)c1OC    2.56 µM
CC(C)(C)c1cn2cccc(C(=O)N3CCN(CC(=O)Nc4ccc(Cl)cc4C(=O)c4ccccc4Cl)CC3)c2n1    2.67 µM
O=C1/C(=C/c2ccc([N+](=O)[O-])o2)Oc2ccccc21    1.02 µM
C=C(C)[C@@H]1CC[C@]2(C(=O)O)CC[C@]3(C)[C@H](CC[C@@H]4[C@@]5(C)C[C@@H](CC#Cc6ccc(Br)cc6)C(=O)C(C)(C)[C@@H]5CC[C@]43C)[C@@H]12    9.08 µM
CO/N=C(\COc1ccc2c(c1)oc(=O)c1cc(OC)ccc12)c1ccc(F)cc1    32.8 µM
O=C(Nc1ccc(Cl)cc1)c1ccc([N+](=O)[O-])o1    3.72 µM
COc1ccc(Cn2cnc3cc(C(=O)Nc4cccc5ccccc45)ccc32)c(OC)c1    0.0368 µM
